The origin of these recorded values is the supplement of paper PMC10981050.

// values below are reported cell viability
test system: MARIMO; test: cell viability relative to vehicle control; higher = less cytotoxic; conditions: 10 µM; SRSF2 genotype: SRSF2 P95H/wt;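 also: after 48 h exposure read by CellTiter-Glo luminescence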
Counter-ions that a name gives are not always drawn.
measured-metric: cell viability (%)

[[record]]
molecule = "NC(=O)c1ccc(-c2nc(-c3ccccn3)c(-c3ccc4c(c3)OCO4)[nH]2)cc1"
tested_target = "MARIMO"
measured_metric = "cell viability"
result_units = "%"
value_reported = 100

[[record]]
molecule = "COC(=O)Nc1ccc(-c2nc(N3CCOCC3)c3cnn(C4CCN(C(=O)OC)CC4)c3n2)cc1"
tested_target = "MARIMO"
measured_metric = "cell viability"
result_units = "%"
value_reported = 53.5

[[record]]
molecule = "CN1CC2c3ccccc3Oc3ccc(Cl)cc3C2C1 (configuration not stated) [Asenapine maleate]"
tested_target = "MARIMO"
measured_metric = "cell viability"
result_units = "%"
value_reported = 63

[[record]]
molecule = "CCCNC[C@]1(O)[C@H](C)O[C@@H](O[C@H]2[C@H](C)[C@@H](O[C@@H]3O[C@H](C)C[C@H](N(C)C)[C@H]3O)[C@](C)(O)C[C@@H](C)CN[C@H](C)[C@@H](O)[C@](C)(O)[C@@H](CC)OC(=O)[C@@H]2C)C[C@@]1(C)OC"
tested_target = "MARIMO"
measured_metric = "cell viability"
result_units = "%"
value_reported = 101

[[record]]
molecule = "O=C1/C(=C/c2cccs2)CC/C1=C\\c1cccs1"
tested_target = "MARIMO"
measured_metric = "cell viability"
result_units = "%"
value_reported = 96.2

[[record]]
molecule = "CC(C)CCN1c2nc(Nc3cc(F)c(O)c(F)c3)ncc2N(C)C(=O)C1C (configuration not stated)"
tested_target = "MARIMO"
measured_metric = "cell viability"
result_units = "%"
value_reported = 33.9

[[record]]
molecule = "NC1(c2ccc(-c3nc4ccn5c(=O)[nH]nc5c4cc3-c3ccccc3)cc2)CCC1 [MK-2206 dihydrochloride]"
tested_target = "MARIMO"
measured_metric = "cell viability"
result_units = "%"
value_reported = 51.4

[[record]]
molecule = "N[C@@H]1CCCCN(c2c(F)cc3c(=O)c(C(=O)O)cn(C4CC4)c3c2Cl)C1 [Besifloxacin HCl (Besivance)]"
tested_target = "MARIMO"
measured_metric = "cell viability"
result_units = "%"
value_reported = 99.3

[[record]]
molecule = "COc1ccc2c(c1)c(CC(=O)O)c(C)n2C(=O)c1ccc(Cl)cc1 [Indometacin Sodium]"
tested_target = "MARIMO"
measured_metric = "cell viability"
result_units = "%"
value_reported = 96.7

[[record]]
molecule = "C[C@@H](O)[C@H]1C(=O)N2C(C(=O)O)=C([C@H]3CCCO3)S[C@H]12 [Faropenem Sodium]"
tested_target = "MARIMO"
measured_metric = "cell viability"
result_units = "%"
value_reported = 88.3

[[record]]
molecule = "COCCCOc1ccnc(C[S+]([O-])c2nc3ccccc3[nH]2)c1C (configuration not stated) [Rebeprazole sodium]"
tested_target = "MARIMO"
measured_metric = "cell viability"
result_units = "%"
value_reported = 104

[[record]]
molecule = "O=C(Oc1cc(S(=O)(=O)c2ccccc2)ccc1[N+](=O)[O-])c1ccc(Cl)cc1"
tested_target = "MARIMO"
measured_metric = "cell viability"
result_units = "%"
value_reported = 106

[[record]]
molecule = "COc1c(O)c(C)cc2c1C(=O)c1c(O)cccc1C2=O"
tested_target = "MARIMO"
measured_metric = "cell viability"
result_units = "%"
value_reported = 109

[[record]]
molecule = "COc1ccc(-c2cc(=O)c3c(OC)c(OC)c(OC)c(OC)c3o2)cc1"
tested_target = "MARIMO"
measured_metric = "cell viability"
result_units = "%"
value_reported = 91.7

[[record]]
molecule = "Cc1nc(=O)c2cc(CN(C)c3ccc(C(=O)N[C@@H](CCC(=O)O)C(=O)O)s3)ccc2[nH]1"
tested_target = "MARIMO"
measured_metric = "cell viability"
result_units = "%"
value_reported = 94.3

[[record]]
molecule = "CC(C)C(C(=O)O)N1C(=O)C(=Cc2ccc(Br)cc2)SC1=S (configuration not stated)"
tested_target = "MARIMO"
measured_metric = "cell viability"
result_units = "%"
value_reported = 98.4

[[record]]
molecule = "Cc1cccc(-c2[nH]ncc2-c2ccc3ncccc3n2)n1"
tested_target = "MARIMO"
measured_metric = "cell viability"
result_units = "%"
value_reported = 107

[[record]]
molecule = "O=C1O[C@H]([C@@H](O)CO)C(O)=C1O"
tested_target = "MARIMO"
measured_metric = "cell viability"
result_units = "%"
value_reported = 100

[[record]]
molecule = "O=C(COc1cccc2c(=O)[nH]ccc12)c1ccccc1"
tested_target = "MARIMO"
measured_metric = "cell viability"
result_units = "%"
value_reported = 94.6

[[record]]
molecule = "C=C1/C(=C\\C=C2/CCC[C@]3(C)[C@@H]([C@H](C)CCCC(C)(C)O)CC[C@@H]23)C[C@@H](O)C[C@@H]1O [Calcitriol (Rocaltrol)]"
tested_target = "MARIMO"
measured_metric = "cell viability"
result_units = "%"
value_reported = 66.9

[[record]]
molecule = "CCC(C)C1OC2(CCC1C)CC1CC(CC=C(C)C(OC3CC(OC)C(OC4CC(OC)C(O)C(C)O4)C(C)O3)C(C)C=CC=C3COC4C(O)C(C)=CC(C(=O)O1)C34O)O2 (configuration not stated)"
tested_target = "MARIMO"
measured_metric = "cell viability"
result_units = "%"
value_reported = 25.9

[[record]]
molecule = "O=C(O)Cc1cccc2ccccc12 [Potassium 1-Naphthaleneacetate]"
tested_target = "MARIMO"
measured_metric = "cell viability"
result_units = "%"
value_reported = 97.4

[[record]]
molecule = "O=C(O)Cc1cccc(OCCCN(Cc2cccc(C(F)(F)F)c2Cl)CC(c2ccccc2)c2ccccc2)c1"
tested_target = "MARIMO"
measured_metric = "cell viability"
result_units = "%"
value_reported = 97.9

[[record]]
molecule = "COC(=O)/C=C/C(=O)OC [Dimethyl Fumarate]"
tested_target = "MARIMO"
measured_metric = "cell viability"
result_units = "%"
value_reported = 103

[[record]]
molecule = "C[C@@]12C[C@@]3(O)O[C@@H](O1)[C@]1(COC(=O)c4ccccc4)[C@H]3C[C@@]12O[C@@H]1O[C@H](CO)[C@@H](O)[C@H](O)[C@H]1O"
tested_target = "MARIMO"
measured_metric = "cell viability"
result_units = "%"
value_reported = 101

[[record]]
molecule = "O=C1NC(=O)/C(=C/c2ccc(-c3ccc(F)cc3O)o2)S1"
tested_target = "MARIMO"
measured_metric = "cell viability"
result_units = "%"
value_reported = 75.9

[[record]]
molecule = "COc1cc2ncnc(Oc3cccc(NC(=O)Nc4cc(C(C)(C)C(F)(F)F)on4)c3)c2cc1OC"
tested_target = "MARIMO"
measured_metric = "cell viability"
result_units = "%"
value_reported = 79.4

